The origin of these recorded values is the supplement of paper PMC11219838.

# System: Caenorhabditis elegans dauer (daf-2(e1370))
# Method Summary: proportion of mobile C. elegans dauer larvae relative to DMSO control (fraction of DMSO control); higher = more viable, less nematicidal, active = 0.63 or less; extreme values may be limits of the assay
# Condition Summary: 60 µM; 5 days; temperature: 20 °C
Reported Property: proportion of mobile C. elegans dauer larvae
Kindly provide the number alone.

Past entries and their recorded results:
[[record]]
cpd_smiles = "COc1ccc(-c2nnc(SCC(=O)Nc3c(F)cc(F)cc3Br)o2)cc1"
observed_result = 1

[[record]]
cpd_smiles = "COc1cccc(-c2nc(-c3ccc(F)cc3)no2)c1"
observed_result = 1

[[record]]
cpd_smiles = "COc1ccccc1OCc1nc(-c2ccc(Br)cc2)no1"
observed_result = 1

[[record]]
cpd_smiles = "CCn1c(SCc2nnc(-c3ccccc3)o2)nnc1-c1ccco1"
observed_result = 1

[[record]]
cpd_smiles = "COc1ccccc1-c1noc(-c2ccccc2)n1"
observed_result = 1

[[record]]
cpd_smiles = "c1cncc(-c2noc(COc3cccc4ccccc34)n2)c1"
observed_result = 1

[[record]]
cpd_smiles = "Brc1ccc(-c2nc(-c3ccncc3)no2)cc1"
observed_result = 0.767

[[record]]
cpd_smiles = "Cc1ccc(-c2nc(-c3cccnc3)no2)cc1Cl"
observed_result = 1

[[record]]
cpd_smiles = "Cc1ccc(C(=O)Nc2ccccc2-c2nc(-c3ccncc3)no2)cc1C"
observed_result = 1

[[record]]
cpd_smiles = "Clc1ccc(-c2noc(-c3ccccc3Cl)n2)cc1"
observed_result = 1


In: What measured proportion of mobile C. elegans dauer larvae goes with Cc1ccccc1-c1noc(COc2ccccc2)n1 ?
Out: 1

In: What measured proportion of mobile C. elegans dauer larvae goes with CC(C)Oc1ccc(-c2nc(-c3cccnc3)no2)cc1 ?
Out: 0
